- experiment: physchem
- Type: physicochemical
- details: 20 °C, pH 7.5, aqueous buffer
Binary call on solubility: label 1 from 50 µM upward, label 0 beneath that.

Solved cases (3 shown):
{"compound": "FC(F)(F)c1c2c(nc3c(-c4ccc(Cl)cc4)cnn13)CCC2 [P5SA-1]", "group.label": "label 1"}
{"compound": "CNC(=O)c1c(NC(=O)COCC(=O)Nc2sc3c(c2C(=O)NC)CCC3)sc2c1CCC2 [P5SA-5]", "group.label": "label 0"}
{"compound": "COc1ccc(-c2nc(Cc3ccc(Cl)cc3)no2)cc1OC [P5SA-2]", "group.label": "label 1"}

Next up:
Entry O=c1cc2nc(-c3ccc(F)cc3)nc(SCc3ccc(Br)cc3)n2[nH]1 [P5SA-4] : is its solubility no less than 50 µM?
label 1

---

- study.target: PPH-5 (Caenorhabditis elegans)
- Construct: made in house
- Sequence (Q9NES8 1-496): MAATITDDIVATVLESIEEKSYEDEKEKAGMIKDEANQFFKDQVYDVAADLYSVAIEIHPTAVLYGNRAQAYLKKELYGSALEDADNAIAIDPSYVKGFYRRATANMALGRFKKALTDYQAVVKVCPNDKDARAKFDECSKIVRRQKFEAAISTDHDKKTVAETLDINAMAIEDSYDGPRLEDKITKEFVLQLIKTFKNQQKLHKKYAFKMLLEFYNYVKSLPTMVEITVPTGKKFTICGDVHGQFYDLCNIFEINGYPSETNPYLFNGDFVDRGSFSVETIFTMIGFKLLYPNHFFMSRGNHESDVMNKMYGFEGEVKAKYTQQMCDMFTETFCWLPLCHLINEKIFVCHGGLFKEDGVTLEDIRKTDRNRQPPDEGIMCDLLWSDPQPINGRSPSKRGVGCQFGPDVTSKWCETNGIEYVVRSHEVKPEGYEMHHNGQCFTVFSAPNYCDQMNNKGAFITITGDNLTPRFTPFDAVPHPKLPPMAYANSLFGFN
- experiment: pNPP phosphatase assay with nematode PPH-5
- Assay type: biochemical, C. elegans
- details: PPH-5 (C. elegans); based on kcat compared with PPH-5 basal activity
experimental.readout: fold activation

Hi, could you look up fold activation for each item in my list?
1. FC(F)(F)c1c2c(nc3c(-c4ccc(Cl)cc4)cnn13)CCC2
2. O=c1cc2nc(-c3ccc(F)cc3)nc(SCc3ccc(Br)cc3)n2[nH]1
3. COc1ccc(-c2nc(Cc3ccc(Cl)cc3)no2)cc1OC
4. CN1CCc2c(sc(-n3cccc3)c2CNC(=O)NC23CC4CC(CC(C4)C2)C3)C1
5. CNC(=O)c1c(NC(=O)COCC(=O)Nc2sc3c(c2C(=O)NC)CCC3)sc2c1CCC2

1: 3.7; 2: 7.8; 3: 3.2; 4: 4.0; 5: 8.4

---

Hi there, I'd appreciate the recorded fold activation for every entry that follows.
- study.target: PP5 (Rattus norvegicus)
- Construct: His tag (inferred from pET28 vector and HisTrap purification); made in house; host or cells: E. coli BL21-CodonPlus (DE3)-RIL
- Sequence (P53042 1-499): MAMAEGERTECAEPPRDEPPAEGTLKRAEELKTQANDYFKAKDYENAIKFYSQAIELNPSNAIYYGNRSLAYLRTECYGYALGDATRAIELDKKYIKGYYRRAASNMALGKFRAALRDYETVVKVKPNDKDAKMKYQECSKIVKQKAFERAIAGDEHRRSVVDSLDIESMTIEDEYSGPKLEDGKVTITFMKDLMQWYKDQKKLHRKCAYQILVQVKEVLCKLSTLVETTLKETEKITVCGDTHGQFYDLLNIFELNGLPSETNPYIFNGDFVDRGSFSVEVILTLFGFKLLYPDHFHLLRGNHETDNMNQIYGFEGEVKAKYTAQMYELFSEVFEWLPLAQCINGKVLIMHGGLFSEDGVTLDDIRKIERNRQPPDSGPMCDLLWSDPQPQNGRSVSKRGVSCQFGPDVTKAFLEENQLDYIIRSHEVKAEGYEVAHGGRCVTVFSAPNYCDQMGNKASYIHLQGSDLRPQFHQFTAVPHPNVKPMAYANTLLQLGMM
- experiment: pNPP phosphatase assay with rat PP5
- Type: biochemical, R. norvegicus
- details: PP5 (R. norvegicus); compound at 100 μM
Numbers only.

{"molecule": "FC(F)(F)c1c2c(nc3c(-c4ccc(Cl)cc4)cnn13)CCC2 [P5SA-1]", "study.target": "PP5 (Rattus norvegicus)", "fold activation": 4.1}

Hi, could you look up fold activation for each item in my list?
1. O=c1cc2nc(-c3ccc(F)cc3)nc(SCc3ccc(Br)cc3)n2[nH]1 [P5SA-4]
2. COc1ccc(-c2nc(Cc3ccc(Cl)cc3)no2)cc1OC [P5SA-2]
3. CNC(=O)c1c(NC(=O)COCC(=O)Nc2sc3c(c2C(=O)NC)CCC3)sc2c1CCC2 [P5SA-5]

3.0
3.9
8.6

---

- study.target: PPH-5 (Caenorhabditis elegans, UniProt Q9NES8)
- Construct: made in house
- experiment: pNPP phosphatase assay with nematode PPH-5
- Type: biochemical, C. elegans
- details: PPH-5 (C. elegans); 60 mM pNPP; in presence of compound
experimental.readout: kcat (s⁻¹)
Numbers only, in s⁻¹.

Hi, could you look up kcat for each item in my list?
1. CNC(=O)c1c(NC(=O)COCC(=O)Nc2sc3c(c2C(=O)NC)CCC3)sc2c1CCC2 [P5SA-5]
2. O=c1cc2nc(-c3ccc(F)cc3)nc(SCc3ccc(Br)cc3)n2[nH]1 [P5SA-4]

1: 5.22; 2: 4.85

Hi, could you look up kcat for each item in my list?
1. FC(F)(F)c1c2c(nc3c(-c4ccc(Cl)cc4)cnn13)CCC2 [P5SA-1]
2. COc1ccc(-c2nc(Cc3ccc(Cl)cc3)no2)cc1OC [P5SA-2]

2.28
1.99
